# assayed system: Dual specificity protein kinase CLK1 (Homo sapiens)
# test name: CLK1 binders by thermal stabilization, biophysical, recombinant human kinase, DSF (AID 382)
# measurement setup: at 10 µM, protein 2 µM, buffer 10 mM HEPES, pH 7.5, NaCl 150 mM, stronger effect = higher value
Activity calls are given as the source filed them. The rule behind the calls is not given here.
quantity: Tm shift

The value of Tm shift measured for the compound `CC(C)c1ccc(Nc2ccn3ncc(-c4ccsc4)c3n2)cc1` turned out to be 4.63 Celsius (active)

The value of Tm shift measured for the compound `Nc1ncc(-c2ccncc2)nc1NC1CCCCC1` turned out to be 3.7 Celsius (active)

The value of Tm shift measured for the compound `Clc1ccc(-c2cnn3ccc(NCc4cccnc4)nc23)cc1` turned out to be 4.33 Celsius (active)

The value of Tm shift measured for the compound `c1csc(-c2cnc3ccc(NCC4CC4)nn23)c1` turned out to be 3.52 Celsius (active)

The value of Tm shift measured for the compound `c1ccc(-c2cnc3ccc(NCc4cccs4)nn23)cc1` turned out to be 3.23 Celsius (active)

The value of Tm shift measured for the compound `Clc1cccc(Nc2ccn3ncc(-c4ccsc4)c3n2)c1` turned out to be 3.45 Celsius (active)

====

# assayed system: Dual specificity protein kinase CLK1 (Homo sapiens)
# test name: CLK1 binders by thermal stabilization, biophysical, recombinant human kinase, DSF (AID 382)
# measurement setup: at 10 µM, protein 2 µM, buffer 10 mM HEPES, pH 7.5, NaCl 150 mM, with 50 mM Arg/Glu, stronger effect = higher value
Calls of active or inactive are those of the source. The rule behind the calls is not given here.
Give Tm shift for every item shown.

The value of Tm shift measured for the compound `CN(C)CCCn1cc(C2=C(c3c[nH]c4ccccc34)C(=O)NC2=O)c2ccccc21` turned out to be 4.4 Celsius (active)

The value of Tm shift measured for the compound `NC(=O)c1ccc(-c2nc(-c3ccc4c(c3)OCCO4)c(-c3ccccn3)[nH]2)cc1` turned out to be 6.3 Celsius (active)

The value of Tm shift measured for the compound Nc1ncnc2c1c(I)cn2[C@@H]1O[C@H](CO)C(O)C1O (stereo partly drawn) turned out to be 5.2 Celsius (active)

The value of Tm shift measured for the compound CC(O)(O)C1(O)C[C@@H]2O[C@@]1(C)n1c3ccccc3c3c4c(c5c6ccccc6n2c5c31)C(=O)NC4 (stereo partly drawn) turned out to be 5.1 Celsius (active)

The value of Tm shift measured for the compound `NC1=N/C(=C2/CCNC(=O)c3[nH]c(Br)cc32)C(=O)N1` turned out to be 4.4 Celsius (active)

The value of Tm shift measured for the compound `Cn1cc(/C=C2\C(=O)Nc3ccc(S(N)(=O)=O)cc32)c2ccccc21` turned out to be 3.6 Celsius (active)

The value of Tm shift measured for the compound `CC(C)n1cnc2c(Nc3cccc(Cl)c3)nc(NCCO)nc21` turned out to be 4.6 Celsius (active)

The value of Tm shift measured for the compound `CN(C)S(O)(O)c1ccc2c(c1)/C(=C/c1cc3c([nH]1)CCCC3)C(=O)N2` turned out to be 4.8 Celsius (active)

====

# assayed system: Dual specificity protein kinase CLK1 (Homo sapiens)
# test name: CLK1 binders by thermal stabilization, biophysical, recombinant human kinase, DSF (AID 382)
# measurement setup: at 10 µM, protein 2 µM, buffer 10 mM HEPES, pH 7.5, NaCl 150 mM, with 50 µM L-Arg/L-Glu (1:1), stronger effect = higher value
Calls of active or inactive are those of the source. No rule for the calls is given here.
quantity: Tm shift

Known value: Dual specificity protein kinase CLK1 (Homo sapiens) Tm shift of the compound `CC(=O)Nc1cccc(-c2cnc3ccc(NC4CCOCC4)nn23)c1` equals 8.8 Celsius (active)

Known value: Dual specificity protein kinase CLK1 (Homo sapiens) Tm shift of the compound `CCCCc1c(-c2ccc(O)cc2)[nH]c2nccnc12` equals 3.5 Celsius (active)

Known value: Dual specificity protein kinase CLK1 (Homo sapiens) Tm shift of the compound OCC1=C(O)C(O)[C@@H](N2CNc3cc(Cl)c(Cl)cc32)O1 (some centres not stated) equals 3.1 Celsius (active)

Known value: Dual specificity protein kinase CLK1 (Homo sapiens) Tm shift of the compound `Fc1ccc(-c2cnc3ccc(NC4CCOCC4)nn23)cc1` equals 5.3 Celsius (active)

Known value: Dual specificity protein kinase CLK1 (Homo sapiens) Tm shift of the compound `COCCNc1ccc2ncc(-c3cccc(C(N)=O)c3)n2n1` equals 3.9 Celsius (active)

Known value: Dual specificity protein kinase CLK1 (Homo sapiens) Tm shift of the compound `CC(C)[C@@H](CO)Nc1ccc2ncc(-c3cccc(O)c3)n2n1` equals 4.2 Celsius (active)

Known value: Dual specificity protein kinase CLK1 (Homo sapiens) Tm shift of the compound `O=C1NCc2c1c1c3ccccc3[nH]c1c1[nH]c3ccccc3c21` equals 3.1 Celsius (active)

Known value: Dual specificity protein kinase CLK1 (Homo sapiens) Tm shift of the compound CCC(CO)Nc1ccc2ncc(-c3ccc(OC)nc3)n2n1 (configuration not stated) equals 4.5 Celsius (active)

Known value: Dual specificity protein kinase CLK1 (Homo sapiens) Tm shift of the compound `NC1=N/C(=C2\CCNC(=O)c3[nH]ccc32)C(=O)N1` equals 6 Celsius (active)

Known value: Dual specificity protein kinase CLK1 (Homo sapiens) Tm shift of the compound `Clc1ccc(-c2cnc3ccc(NC4CCOCC4)nn23)cc1` equals 5.7 Celsius (active)

Known value: Dual specificity protein kinase CLK1 (Homo sapiens) Tm shift of the compound `CC(=O)c1cccc(-c2cnc3ccc(NC4CCOCC4)nn23)c1` equals 5.2 Celsius (active)

Known value: Dual specificity protein kinase CLK1 (Homo sapiens) Tm shift of the compound `c1cncc(-c2cnc3ccc(NC4CCOCC4)nn23)c1` equals 3.3 Celsius (active)

====

Give Tm shift for every item shown.
# assayed system: Dual specificity protein kinase CLK1 (Homo sapiens)
# test name: CLK1 binders by thermal stabilization, biophysical, recombinant human kinase, DSF (AID 382)
# measurement setup: at 10 µM, protein 2 µM, buffer 10 mM HEPES, NaCl 150 mM, stronger effect = higher value
Active and inactive are the calls of the source. No rule for the calls is given here.

The value of Tm shift measured for the compound CC(C)C(CO)Nc1nc(Nc2cccc(Cl)c2)c2ncn(C(C)C)c2n1 (configuration not stated) turned out to be 6.23 Celsius (active)

The value of Tm shift measured for the compound `O=c1c(O)c(-c2cc(O)c(O)c(O)c2)oc2cc(O)cc(O)c12` turned out to be 6.89 Celsius (active)

The value of Tm shift measured for the compound `O=C1NC(=O)C(c2c[nH]c3ccccc23)=C1c1c[nH]c2ccccc12` turned out to be 4.13 Celsius (active)

The value of Tm shift measured for the compound `COc1cc(O)c2c(c1)oc(=O)c1c3cc(O)c(O)cc3oc21` turned out to be 3.2 Celsius (active)

The value of Tm shift measured for the compound O=C1C(=O)C(c2cccc(O)c2)Oc2ccccc21 (configuration not stated) turned out to be 3.88 Celsius (active)

The value of Tm shift measured for the compound `CC(C)n1cnc2c(Nc3cccc(Cl)c3)nc(NCCO)nc21` turned out to be 5.26 Celsius (active)

The value of Tm shift measured for the compound `COc1cc2ncnc(Nc3cccc(O)c3)c2cc1OC` turned out to be 4.15 Celsius (active)

The value of Tm shift measured for the compound `O=Nc1c(-c2c(O)[nH]c3ccccc23)[nH]c2ccccc12` turned out to be 3.59 Celsius (active)

The value of Tm shift measured for the compound `O=c1c(-c2ccc(O)cc2)coc2cc(O)cc(O)c12` turned out to be 3.77 Celsius (active)

The value of Tm shift measured for the compound `O=c1cc(-c2ccc(O)cc2)oc2cc(O)cc(O)c12` turned out to be 5.94 Celsius (active)

The value of Tm shift measured for the compound `O=Nc1c(-c2c(O)[nH]c3ccc(S(O)(O)O)cc23)[nH]c2ccccc12` turned out to be 3.64 Celsius (active)

The value of Tm shift measured for the compound O=C1C(=O)C(c2cc(O)c(O)c(O)c2)Oc2cc(O)cc(O)c21 (configuration not stated) turned out to be 6.4 Celsius (active)

The value of Tm shift measured for the compound `O=c1cc(-c2ccccc2)oc2cc(O)c(O)c(O)c12` turned out to be 4.05 Celsius (active)

The value of Tm shift measured for the compound CC1N=C2SC=CN2C(=O)C1CCN1CCC(=C(c2ccccc2)c2ccc(F)cc2)CC1 (configuration not stated) turned out to be 6.74 Celsius (active)

The value of Tm shift measured for the compound `O=C1c2ccccc2-c2n[nH]c3cccc1c23` turned out to be 4.9 Celsius (active)

The value of Tm shift measured for the compound `O=c1cc(-c2ccccc2)oc2cc(O)cc(O)c12` turned out to be 5.03 Celsius (active)

The value of Tm shift measured for the compound `CN(C)CCCn1cc(C2=C(c3c[nH]c4ccccc34)C(=O)NC2=O)c2ccccc21` turned out to be 6.98 Celsius (active)
